molecular target: CYP3A4 (Homo sapiens, UniProt P08684); experiment: CYP3A4 inhibition and inactivation kinetics, nifedipine oxidation as marker reaction
Sequence (P08684 whole entry): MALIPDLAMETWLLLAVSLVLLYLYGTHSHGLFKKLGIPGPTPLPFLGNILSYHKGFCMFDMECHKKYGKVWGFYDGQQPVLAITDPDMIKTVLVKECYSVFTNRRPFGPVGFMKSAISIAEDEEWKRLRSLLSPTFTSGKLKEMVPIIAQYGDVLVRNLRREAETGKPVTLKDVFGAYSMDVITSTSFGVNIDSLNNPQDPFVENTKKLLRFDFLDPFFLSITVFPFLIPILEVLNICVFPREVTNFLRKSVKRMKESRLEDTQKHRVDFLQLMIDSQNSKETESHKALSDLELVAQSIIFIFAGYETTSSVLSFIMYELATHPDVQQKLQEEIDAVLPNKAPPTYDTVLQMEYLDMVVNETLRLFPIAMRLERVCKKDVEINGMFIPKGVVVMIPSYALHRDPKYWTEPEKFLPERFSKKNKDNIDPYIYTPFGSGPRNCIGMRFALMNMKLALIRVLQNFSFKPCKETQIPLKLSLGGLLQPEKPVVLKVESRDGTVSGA
pIC50: −log10 of the molar value.
measured-attribute: pIC50

1: O=C1CC(c2ccccc2)Oc2cc(O)cc(O)c21 (stereo not drawn) [pinocembrin, 5,7-dihydroxy-flavanone]
2: O=c1cc(-c2ccccc2)oc2cc(O)cc(O)c12 [chrysin, 5,7-dihydroxy-flavone]
3: COc1ccc(-c2cc(=O)c3c(O)cc(O)cc3o2)cc1
[ask] Put the items in sequence by pIC50, from largest down. // respond by listing labels in the order requested
[reply] 2, 1, 3
